Reference for the values: paper PMC9352680

- TESTED_SYSTEM: T1, PUF4 RNA-binding domain (Saccharomyces cerevisiae, UniProt P25339 537-888)
- T1 sequence: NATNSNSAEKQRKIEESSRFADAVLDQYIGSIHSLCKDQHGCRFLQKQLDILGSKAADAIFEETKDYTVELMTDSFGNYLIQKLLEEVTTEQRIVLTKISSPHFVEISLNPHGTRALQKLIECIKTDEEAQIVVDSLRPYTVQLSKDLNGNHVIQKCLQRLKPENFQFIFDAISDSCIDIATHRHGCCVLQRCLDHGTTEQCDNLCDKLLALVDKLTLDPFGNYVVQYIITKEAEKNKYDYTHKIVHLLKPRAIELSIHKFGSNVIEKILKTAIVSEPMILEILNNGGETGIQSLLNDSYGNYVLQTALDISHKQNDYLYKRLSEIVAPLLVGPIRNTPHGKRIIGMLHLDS
- ASSAY_PROCEDURE: Mg; RNA-MaP; 20 mM Na-HEPES pH 7.4, 30 mM KOAc, 0.75 mM MgCl2, 0.1% Tween-20, 5% glycerol, 0.1 mg/mL BSA, 2 mM DTT; 25 C; 0.0125-409.6 nM protein
- EXPERIMENTAL_CONDITIONS: tags: N-His6-TEV cleaved; C-SNAP kept, Cy3B-labelled; label: tethered on chip by stalled RNA polymerase
// values below are reported Kd
VALUE_KIND: Kd (nM)

{"BINDER": "Ic_S4_P4E.1_K4.1_C4.1_H4.1_A4.1_[T5A]_[A6C]_[T7A]_F4.1_[T8C]_[A9C]_T4.1 (ssRNA) RNA: UUUGACAACUGAUCGUUCUUUCUUGUAACACCUUCUUUCUCGAUCAGUUGUCUUU", "REPORTED_RESULT": 215}
{"BINDER": "UCUCUUAGUAUAUAUCUCUU (ssRNA) [Ia_S1_P3E.1_K3.1_C3.1_H3.1_[T1A]_A3.1_F3.1_T3.1]", "REPORTED_RESULT": 742}
{"BINDER": "UCUCUUCCUUGUAUAUUAGUUCUCUU (ssRNA) [Id_iii_S1_P4E.5_K4.1_C4.3_[T-3C]_H4.1_A4.1_F4.1_T4.2]", "REPORTED_RESULT": 0.347}
